The origin of these recorded values is ChEMBL document CHEMBL5625250.

# assay comment: Solubility of the compound in water at pH 6.0 by shake flask method
# Format: physicochemical
Reported solubility thermodynamic is given for each of the following molecules.
Form entry: value (µg/mL) — number only.

In the examples that follow, each entry is paired with its recorded solubility thermodynamic.
COc1cc(O)c2c(=O)cc(-c3ccc(N4CCN(CC5CCN(c6ccc7c(c6)C(=O)N(C6CCC(=O)NC6=O)C7=O)CC5)CC4)cc3)oc2c1C1=CCN(C)CC1 (stereo unspecified) = 125
COc1cc(O)c2c(=O)cc(-c3ccc(N4CCN(CC5CCN(c6cccc7c6C(=O)N(C6CCC(=O)NC6=O)C7=O)CC5)CC4)cc3)oc2c1C1=CCN(C)CC1 (stereo unspecified) = 193

Attention now shifts to the item below.
Q. Record request: solubility thermodynamic value, item COc1cc(O)c2c(=O)cc(-c3ccc(N4CCN(CCC5CCN(c6ccc7c(c6)C(=O)N(C6CCC(=O)NC6=O)C7=O)CC5)CC4)cc3)oc2c1C1=CCN(C)CC1 (stereo unspecified)
A. 117

---

# tested target: Cyclin-dependent kinase 9 (Homo sapiens)
# Sequence (P50750 whole entry): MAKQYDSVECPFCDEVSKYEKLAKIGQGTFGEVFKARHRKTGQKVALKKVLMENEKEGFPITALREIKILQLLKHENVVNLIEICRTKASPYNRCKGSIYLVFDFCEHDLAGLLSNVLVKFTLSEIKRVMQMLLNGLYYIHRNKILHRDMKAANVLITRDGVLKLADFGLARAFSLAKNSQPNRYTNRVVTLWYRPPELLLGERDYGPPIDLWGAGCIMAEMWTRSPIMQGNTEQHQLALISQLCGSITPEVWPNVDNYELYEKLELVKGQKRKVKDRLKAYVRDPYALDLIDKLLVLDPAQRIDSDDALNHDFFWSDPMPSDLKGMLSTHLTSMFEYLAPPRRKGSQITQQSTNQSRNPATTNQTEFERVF
Reported pIC50 is given for each of the following compounds.
# pIC50 = -log10(concentration in molar units)

COc1cc(O)c2c(=O)cc(-c3ccc(N4CCN(CC5CCN(c6ccc7c(c6)C(=O)N(C6CCC(=O)NC6=O)C7=O)CC5)CC4)cc3)oc2c1C1=CCN(C)CC1 (configuration not stated) = 8.48

Attention now shifts to the item below.
Q. Short answer please: pIC50, Cyclin-dependent kinase 9 (Homo sapiens), entry COc1cc(O)c2c(=O)cc(-c3ccc(N4CCN(C)CC4)cc3)oc2c1C1=CCN(C)CC1
A. 7.18

---

# assay comment: Metabolic stability in human liver microsome assessed as half life at 10 uM by LC-MS/MS analysis
# Assay type: ADME
# run conditions: liver microsomes
observable: half-life at 10 µM (min)
Form entry: value (min) — number only.

Q. Record request: half-life at 10 µM value, item COc1cc(O)c2c(=O)cc(-c3ccc(N4CCN(CC5CCN(c6ccc7c(c6)C(=O)N(C6CCC(=O)NC6=O)C7=O)CC5)CC4)cc3)oc2c1C1=CCN(C)CC1 (stereo unspecified)
A. 97

---

# tested target: Cyclin-dependent kinase 9 (Homo sapiens)
# assay comment: Inhibition of CDK9 (unknown origin) at 20 nM in presence of ATP by ADP-Glo kinase assay relative to control
observable: inhibition (%)
Form entry: value (%) — number only.

COc1cc(O)c2c(=O)cc(-c3ccc(N4CCN(C(=O)CCCCCCCCCOc5cccc6c5C(=O)N(C5CCC(=O)NC5=O)C6=O)CC4)cc3)oc2c1C1=CCN(C)CC1 (stereo not drawn) = 34.2
COc1cc(O)c2c(=O)cc(-c3ccc(N4CCN(C(=O)CCCCCOc5cccc6c5C(=O)N(C5CCC(=O)NC5=O)C6=O)CC4)cc3)oc2c1C1=CCN(C)CC1 (stereo not drawn) = 69.9
COc1cc(O)c2c(=O)cc(-c3ccc(N4CCN(C(=O)CCCOc5cccc6c5C(=O)N(C5CCC(=O)NC5=O)C6=O)CC4)cc3)oc2c1C1=CCN(C)CC1 (stereo not drawn) = 79
COc1cc(O)c2c(=O)cc(-c3ccc(N4CCN(C)CC4)cc3)oc2c1C1=CCN(C)CC1 = 69.2
COc1cc(O)c2c(=O)cc(-c3ccc(N4CCN(C(=O)CCCCCCCOc5cccc6c5C(=O)N(C5CCC(=O)NC5=O)C6=O)CC4)cc3)oc2c1C1=CCN(C)CC1 (stereo not drawn) = 69.5

Q. Record request: inhibition value, item COc1cc(O)c2c(=O)cc(-c3ccc(N4CCN(C(=O)CCCCOc5cccc6c5C(=O)N(C5CCC(=O)NC5=O)C6=O)CC4)cc3)oc2c1C1=CCN(C)CC1 (stereo not drawn)
A. 74.2

Q. Next entry: COc1cc(O)c2c(=O)cc(-c3ccc(N4CCN(C(=O)C5CCN(c6ccc7c(c6)C(=O)N(C6CCC(=O)NC6=O)C7=O)CC5)CC4)cc3)oc2c1C1=CCN(C)CC1 (stereo not drawn)
A. 90.4

Q. Next entry: COc1cc(O)c2c(=O)cc(-c3ccc(N4CCN(CC5CCN(c6ccc7c(c6)C(=O)N(C6CCC(=O)NC6=O)C7=O)CC5)CC4)cc3)oc2c1C1=CCN(C)CC1 (stereo not drawn)
A. 85.6

---

# assay comment: Half life in Sprague-Dawley rat at 2 mg/kg, iv by LC-MS/MS analysis
# Type: ADME, organism-based
# run conditions: in vivo
observable: half-life (h)
Form entry: value (h) — number only.

Q. Record request: half-life value, item COc1cc(O)c2c(=O)cc(-c3ccc(N4CCN(CC5CCN(c6ccc7c(c6)C(=O)N(C6CCC(=O)NC6=O)C7=O)CC5)CC4)cc3)oc2c1C1=CCN(C)CC1 (stereo unspecified)
A. 11.1

---

# assay comment: AUC in Sprague-Dawley rat at 2 mg/kg, iv by LC-MS/MS analysis
# Format: ADME, organism-based
# run conditions: in vivo
observable: AUC (ng·h/mL)
Form entry: value (ng·h/mL) — number only.

Q. Record request: AUC value, item COc1cc(O)c2c(=O)cc(-c3ccc(N4CCN(CC5CCN(c6ccc7c(c6)C(=O)N(C6CCC(=O)NC6=O)C7=O)CC5)CC4)cc3)oc2c1C1=CCN(C)CC1 (stereo unspecified)
A. 681

---

# assay comment: Solubility of the compound in water at pH 6.0 by shake flask method
# Format: physicochemical
observable: solubility thermodynamic

COc1cc(O)c2c(=O)cc(-c3ccc(N4CCN(C(=O)CCCCCOc5cccc6c5C(=O)N(C5CCC(=O)NC5=O)C6=O)CC4)cc3)oc2c1C1=CCN(C)CC1 (stereo not drawn) = < 10 µg/mL
COc1cc(O)c2c(=O)cc(-c3ccc(N4CCN(C(=O)CNc5cccc6c5C(=O)N(C5CCC(=O)NC5=O)C6=O)CC4)cc3)oc2c1C1=CCN(C)CC1 (stereo not drawn) = < 10 µg/mL

Attention now shifts to the item below.
Q. Record request: solubility thermodynamic value, item COc1cc(O)c2c(=O)cc(-c3ccc(N4CCN(C(=O)CCCCCCCOc5cccc6c5C(=O)N(C5CCC(=O)NC5=O)C6=O)CC4)cc3)oc2c1C1=CCN(C)CC1 (stereo not drawn)
A. < 10 µg/mL
